Cited source for all entries: paper PMC11990158

Target Desc: UniProt:P34913
Protocol Notes: Human sEH inhibition, fluorescent assay (MNPC substrate)
Type: biochemical
Condition: recombinant purified human sEH, 5 min preincubation at 37 °C, MNPC 5 µM; read-out: HsEH IC50
Description: The inhibition potency of the compounds against the recombinant purified human and mouse sEH and human mEH were measured using sensitive fluorescent assays. The enzymes were diluted to the proper buffer and aliquoted in black 96-well plates. […] The formation of the product (6-methoxynaphthaldehyde) was measured ([…]) every 30 s for 10 min by a Molecular Device M-2 plate reader. […]
Quantity: log10(IC50) (log10 of the value in µM)
Heads up, the numbers here are log10 of IC50 in µM units.

For each listed entry, give its log10(IC50).
1. CCCCCCCCCCNC(=O)NC/C=C\COCC(=O)O
2. CCCCCCCCCCNC(=O)NCCCCOCC(=O)O
3. CCCCCCCCCCCNC(=O)CCCCCCC(=O)O [10a, 8-Oxo-8-(undecylamino)octanoic Acid]
4. CCCCCCCCCCCCNC(=O)CCCCCCC(=O)O [10b, 8-(Dodecylamino)-8-oxooctanoic Acid]
5. CCCCCCCC/C=C\CNC(=O)NC/C=C\COCC(=O)O
6. CCCCCCCC/C=C\CNC(=O)NCCCCOCC(=O)O
7. CCCCCCCCCCCCC(=O)NCCCCCCC(=O)O

Outgoing:
[0.32, -0.08, 0.54, 0.43, 0.41, 0.20, 0.38]

* * *

Target Desc: human soluble epoxide hydrolase (sEH) (Homo sapiens, UniProt P34913)
Sequence (P34913 whole entry): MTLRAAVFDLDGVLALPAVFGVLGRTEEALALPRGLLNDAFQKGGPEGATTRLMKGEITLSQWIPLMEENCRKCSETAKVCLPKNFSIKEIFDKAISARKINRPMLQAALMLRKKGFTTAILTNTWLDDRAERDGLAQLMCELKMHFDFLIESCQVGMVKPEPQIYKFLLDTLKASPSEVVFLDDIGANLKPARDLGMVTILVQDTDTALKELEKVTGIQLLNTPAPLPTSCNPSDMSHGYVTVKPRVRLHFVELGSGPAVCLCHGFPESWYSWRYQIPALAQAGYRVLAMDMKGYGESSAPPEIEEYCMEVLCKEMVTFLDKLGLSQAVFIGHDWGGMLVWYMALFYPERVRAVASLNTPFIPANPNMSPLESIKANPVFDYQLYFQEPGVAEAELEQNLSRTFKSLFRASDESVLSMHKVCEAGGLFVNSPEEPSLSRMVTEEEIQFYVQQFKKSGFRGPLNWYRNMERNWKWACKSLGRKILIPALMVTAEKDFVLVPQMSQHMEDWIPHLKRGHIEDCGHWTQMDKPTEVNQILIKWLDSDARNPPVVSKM
Protocol Notes: Human sEH inhibition, fluorescent assay (MNPC substrate)
Condition: recombinant purified human sEH, 5 min preincubation at 37 °C, MNPC 5 µM; read-out: HsEH IC50
Please provide measured pIC50 for the entries that follow.
Numbers only, as −log10 of the molar value.

Check out these entries, answers already filled in.
CCCCCCCCCCCC(=O)NCCCCCC(=O)O; 5.02
CCCCCCCC/C=C\CNC(=O)C(=O)NCCCCCC(=O)O; 4.72
CCCCCCCCCCNC(=O)C(=O)NCCCCCCC(=O)O; 4.31
CCCCCCCCCNC(=O)C(=O)NCCCCCCC(=O)O; 4.19
CCCCCCCCCCCCC(=O)NCCCCCC(=O)O; 5.19

Give pIC50 for each of the items listed below.
1. CCCCCCCCCCCC(=O)NCCCCCCC(=O)O
2. CCCCCCCCCCCNC(=O)CCCCCCCC(=O)O [10c, 9-Oxo-9-(undecylamino)nonanoic Acid]
3. CCCCCCCCCCCNC(=O)NCCCCOCC(=O)O

Outgoing:
5.64
6.05
5.74

Look up pIC50 for the entries below, preserving their order.
1. CCCCCCCC/C=C\CNC(=O)CCCCCCCC(=O)O [10d]
2. CCCCCCCCCCNC(=O)C(=O)NCCCCCC(=O)O

Outgoing:
6.09
4.29
